test-system: Cytochrome P450 3A4 (Homo sapiens);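 further: CYP3A4 tested as one member of a cytochrome P450 panel screen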
Sequence (P08684 whole entry): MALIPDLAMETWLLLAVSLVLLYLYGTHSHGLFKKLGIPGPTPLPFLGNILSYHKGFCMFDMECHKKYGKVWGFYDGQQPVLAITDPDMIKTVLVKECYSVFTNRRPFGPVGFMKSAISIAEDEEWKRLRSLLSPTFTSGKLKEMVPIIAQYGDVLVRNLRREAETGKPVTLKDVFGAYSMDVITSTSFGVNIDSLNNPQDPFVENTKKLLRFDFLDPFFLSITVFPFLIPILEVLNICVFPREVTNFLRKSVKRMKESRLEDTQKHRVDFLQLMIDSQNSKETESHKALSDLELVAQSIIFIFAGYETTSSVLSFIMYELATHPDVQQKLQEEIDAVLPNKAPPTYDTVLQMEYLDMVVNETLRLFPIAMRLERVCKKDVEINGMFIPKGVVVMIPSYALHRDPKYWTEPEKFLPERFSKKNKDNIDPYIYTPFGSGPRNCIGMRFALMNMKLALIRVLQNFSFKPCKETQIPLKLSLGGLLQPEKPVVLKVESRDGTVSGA
value-type: AC50

[[record]]
compound = "O=c1cnc2cnc(Nc3ccccc3)nc2n1C[C@H]1CCCO1"
test_system = "Cytochrome P450 3A4 (Homo sapiens)"
reported_result = "31.6 µM (inconclusive)"

[[record]]
compound = "CCCOc1ccc(C2C(=O)N(C3CCCCC3)CC(=O)N2C2CC2)cc1OC (stereo not drawn)"
test_system = "Cytochrome P450 3A4 (Homo sapiens)"
reported_result = "17.8 µM (inconclusive)"

[[record]]
compound = "O=c1c(CCc2ccccc2)nc2cncnc2n1-c1ccccc1"
test_system = "Cytochrome P450 3A4 (Homo sapiens)"
reported_result = "5.01 µM (inconclusive)"

[[record]]
compound = "CCn1c(=O)c2c(=O)cc(O)oc2c2ccccc21"
test_system = "Cytochrome P450 3A4 (Homo sapiens)"
reported_result = "0.631 µM (inconclusive)"

[[record]]
compound = "O=C(Cn1ccc([N+](=O)[O-])n1)NCc1cccs1"
test_system = "Cytochrome P450 3A4 (Homo sapiens)"
reported_result = "39.8 µM (inconclusive)"

[[record]]
compound = "FC(F)(F)c1nc2nc(Cl)c(Cl)nc2n1CCCN1CCOCC1"
test_system = "Cytochrome P450 3A4 (Homo sapiens)"
reported_result = "5.01 µM (inconclusive)"


Attention now turns to another entry.
Task: # lookup: AC50 of `Cc1ccc(COn2c(-c3ccc(Cl)cc3)nc3ccc([N+](=O)[O-])cc32)cc1`
Output: 3.55 µM (inconclusive)

----------
AC50 tested on Cytochrome P450 1A2 (Homo sapiens, UniProt P05177): recorded values;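 further: PubChem cytochrome P450 panel assay, CYP1A2 panel member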
Sequence (P05177 whole entry): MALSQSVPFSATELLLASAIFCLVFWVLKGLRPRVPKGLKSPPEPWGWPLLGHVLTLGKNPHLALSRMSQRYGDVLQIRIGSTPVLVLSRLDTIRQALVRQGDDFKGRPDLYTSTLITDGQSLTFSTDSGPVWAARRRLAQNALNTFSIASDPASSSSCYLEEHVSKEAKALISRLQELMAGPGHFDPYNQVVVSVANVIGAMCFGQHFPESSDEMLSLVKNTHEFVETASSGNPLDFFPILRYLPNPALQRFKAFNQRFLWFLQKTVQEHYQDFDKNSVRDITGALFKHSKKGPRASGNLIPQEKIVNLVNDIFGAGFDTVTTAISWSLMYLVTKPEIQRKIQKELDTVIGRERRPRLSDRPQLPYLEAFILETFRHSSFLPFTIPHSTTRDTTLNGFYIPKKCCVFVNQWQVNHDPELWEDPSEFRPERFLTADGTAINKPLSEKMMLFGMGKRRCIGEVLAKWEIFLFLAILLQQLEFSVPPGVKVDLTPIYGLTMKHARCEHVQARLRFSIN

[[record]]
compound = "Cc1cc([N+](=O)[O-])ccc1-c1ccc(C2Nc3ccccc3C(=O)N2O)o1 (configuration not stated)"
reported_result = "25.1 µM (inconclusive)"


Task: May I ask what AC50 has been recorded for `O=C(c1cc(-c2ccccc2Cl)on1)N1CCN(C(=O)c2ccco2)CC1` ?
Output: 25.1 µM (inconclusive)

Task: Repeat with `O=C(c1nn(Cc2ccccc2)c(=O)c2ccccc12)N1CCN(C/C=C/c2ccccc2)CC1`
Output: 20 µM (inconclusive)

Task: Record: `COc1ccccc1NC(=O)CSc1nc2ccccc2cc1Cc1ccccc1`
Output: 3.55 µM (inconclusive)

----------
Read-out record for Cytochrome P450 3A4 (Homo sapiens, UniProt P08684): AC50

Examples with their reported AC50 follow.
[[record]]
smiles_notation = "COCCn1c(=O)c(-c2ccc(OC)cc2)nc2cnc(Oc3cccc(Cl)c3)nc21"
value_type = "AC50"
reported_result = "2 µM (inconclusive)"

[[record]]
smiles_notation = "O=c1c2ccccc2nc2n1CCc1c-2[nH]c2ccccc12"
value_type = "AC50"
reported_result = "3.98 µM (inconclusive)"

[[record]]
smiles_notation = "Clc1ccccc1CSc1nnc(-c2ccncc2)o1"
value_type = "AC50"
reported_result = "20 µM (inconclusive)"

[[record]]
smiles_notation = "NCCSC(c1ccccc1)c1ccccc1"
value_type = "AC50"
reported_result = "3.16 µM (inconclusive)"

[[record]]
smiles_notation = "C=CC(C)(C)c1[nH]c2ccccc2c1C1=C(O)C(O)=C(c2c[nH]c3c(CC=C(C)C)cccc23)C(=O)C1=O"
value_type = "AC50"
reported_result = "25.1 µM (inconclusive)"


Would you kindly look at the next entry?
Task: Fill in the blank: the reported AC50 of `NCC#Cc1ccccc1` is ____.
Output: 15.8 µM (inconclusive)

Cited source: ChEMBL document CHEMBL1201862
